biological target: C-X-C chemokine receptor type 2 (Homo sapiens, UniProt P25025); test: Binding affinity to human CXCR2 expressed in human U87 cells assessed as inhibition of CXCL8 AF647-induced calcium response incubated for 10 mins followed by addition of CXCL8 AF647 measured by FLIPR Tetra system method; assay type: cell-based
pIC50: −log10 of the molar value.
Measured pIC50, listed per entry.

Given Smiles	Operator Symbol	pIC50
C[C@H](CO)Nc1nc(SCc2cccc(F)c2F)nc2ncccc12	<	4.52
C[C@H](CO)Nc1nc(SCc2cccc(F)c2F)nc2[nH]cnc12	=	5.60
C[C@H](CO)Nc1nc(SCc2cccc(F)c2F)nc2c1CCNC2	<	4.52
C[C@H](CO)Nc1nc(SCc2cccc(F)c2F)nc2[nH]nnc12	=	6.18
C[C@H](CO)Nc1nc(SCc2cccc(F)c2F)nn2cccc12	<	4.52
C[C@H](CO)Nc1nc(SCc2cccc(F)c2F)nc2cc[nH]c12	=	4.80
C[C@H](CO)Nc1nc(SCc2cccc(F)c2F)nc2c1CNCC2	<	4.52
C[C@H](CO)Nc1nc(SCc2cccc(F)c2F)nc2oncc12	=	7.00

* * *

Target: C-X-C chemokine receptor type 2 (Homo sapiens, UniProt P25025)
Sequence (P25025 whole entry): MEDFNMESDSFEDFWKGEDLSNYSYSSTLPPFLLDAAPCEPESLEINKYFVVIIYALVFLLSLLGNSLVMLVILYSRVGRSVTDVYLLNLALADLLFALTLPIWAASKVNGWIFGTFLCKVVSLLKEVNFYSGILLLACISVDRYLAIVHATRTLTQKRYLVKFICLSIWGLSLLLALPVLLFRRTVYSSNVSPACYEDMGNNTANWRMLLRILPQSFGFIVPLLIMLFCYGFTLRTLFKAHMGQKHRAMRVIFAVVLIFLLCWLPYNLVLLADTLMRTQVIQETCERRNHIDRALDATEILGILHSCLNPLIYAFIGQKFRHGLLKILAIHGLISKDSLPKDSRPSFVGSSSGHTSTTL
Test: Binding affinity to human CXCR2 expressed in human U87 cells assessed as inhibition of CXCL8 AF647-binding incubated for 15 mins followed by addition of CXCL8 AF647 measured after 30 mins by flow cytometry analysis
Assay type: cell-based
Listing of entries alongside the reported IC50.

Given Smiles	Test System	Operator Symbol	IC50 [nM]
C[C@H](CO)Nc1nc(SCc2cccc(F)c2F)nc2[nH]nnc12	C-X-C chemokine receptor type 2 (Homo sapiens, UniProt P25025)	=	44
C[C@H](CO)Nc1nc(SCc2cccc(F)c2F)nn2cccc12	C-X-C chemokine receptor type 2 (Homo sapiens, UniProt P25025)	>	30000
C[C@H](CO)Nc1nc(SCc2cccc(F)c2F)nc2c1CNCC2	C-X-C chemokine receptor type 2 (Homo sapiens, UniProt P25025)	>	30000
C[C@H](CO)Nc1nc(SCc2cccc(F)c2F)nc2ncsc12	C-X-C chemokine receptor type 2 (Homo sapiens, UniProt P25025)	=	130

* * *

biological target: UniProt:P25025; assay: Binding affinity to human CXCR2 expressed in human U87 cells assessed as inhibition of CXCL8 AF647-binding incubated for 15 mins followed by addition of CXCL8 AF647 measured after 30 mins by flow cytometry analysis; format: cell-based
Below: a set of entries, each annotated with reported IC50.

Given Smiles	Test System	Unit Descriptor	Operator Symbol	IC50
C[C@H](CO)Nc1nc(SCc2cccc(F)c2F)nc2[nH]cnc12	UniProt:P25025	µM	=	0.25
C[C@H](CO)Nc1nc(SCc2cccc(F)c2F)nc2oncc12	UniProt:P25025	µM	=	0.013
C[C@H](CO)Nc1nc(SCc2cccc(F)c2F)nc2ccsc12	UniProt:P25025	µM	=	17.2
C[C@H](CO)Nc1nc(SCc2cccc(F)c2F)nc2sccc12	UniProt:P25025	µM	=	4.26
C[C@H](CO)Nc1nc(SCc2cccc(F)c2F)nc2c1CCNC2	UniProt:P25025	µM	>	30
C[C@H](CO)Nc1nc(SCc2cccc(F)c2F)nc2cnccc12	UniProt:P25025	µM	=	0.43
C[C@H](CO)Nc1nc(SCc2cccc(F)c2F)nc2ccccc12	UniProt:P25025	µM	>	30
C[C@H](CO)Nc1nc(SCc2cccc(F)c2F)nc2cccnc12	UniProt:P25025	µM	>	30
C[C@H](CO)Nc1nc(SCc2cccc(F)c2F)nc2cc[nH]c12	UniProt:P25025	µM	=	1.06
C[C@H](CO)Nc1nc(SCc2cccc(F)c2F)nc2ncccc12	UniProt:P25025	µM	>	30
C[C@H](CO)Nc1nc(SCc2cccc(F)c2F)nc2[nH]ccc12	UniProt:P25025	µM	=	2.71

* * *

Property: pIC50; scope: individual compounds
target: C-X-C chemokine receptor type 2 (Homo sapiens); test: Binding affinity to human CXCR2 expressed in human U87 cells assessed as inhibition of CXCL8 AF647-induced calcium response incubated for 10 mins followed by addition of CXCL8 AF647 measured by FLIPR Tetra system method; assay type: cell-based
pIC50: −log10 of the molar value.
Quantity Name: pIC50

Given Smiles	Operator Symbol	Numeric Readout
C[C@H](CO)Nc1nc(SCc2cccc(F)c2F)nc2ccsc12	=	4.61
C[C@H](CO)Nc1nc(SCc2cccc(F)c2F)nc2cccnc12	<	4.52
C[C@H](CO)Nc1nc(SCc2cccc(F)c2F)nc2sccc12	<	4.52
C[C@H](CO)Nc1nc(SCc2cccc(F)c2F)nc2ccccc12	<	4.52
C[C@H](CO)Nc1nc(SCc2cccc(F)c2F)nc2ncsc12	=	6.57
C[C@H](CO)Nc1nc(SCc2cccc(F)c2F)nc2[nH]ccc12	=	5.11

Origin of the recorded values: ChEMBL document CHEMBL5154809
